Experiment description: Caco-2 cell permeability assay
Assay type: in vitro ADME
Measurement conditions: human
Measured property: Papp B→A (×10⁻⁶ cm/s)
Entry rule: numbers only, all in ×10⁻⁶ cm/s.

# lookup: Papp B→A of COc1nc(-c2cccc3c2OCCO3)ccc1Nc1ccc(CN(C)C)cc1 8.46

* * *

Tested system: GST-KRASG12V-GppNHp (Homo sapiens, UniProt P01116, G12V)
Construct: strain named only for the HRAS plasmids)
Sequence (P01116 1-188 isoform P01116-2 G12V): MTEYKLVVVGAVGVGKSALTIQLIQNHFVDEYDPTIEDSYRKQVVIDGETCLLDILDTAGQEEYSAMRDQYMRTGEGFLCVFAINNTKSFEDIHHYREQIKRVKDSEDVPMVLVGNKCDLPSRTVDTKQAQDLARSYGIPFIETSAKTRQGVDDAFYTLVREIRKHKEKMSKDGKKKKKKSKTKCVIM
Experiment description: 1H CPMG NMR protein titration for Kd
Measurement conditions: CPMG NMR titration, 55 μM compound; read-out: Kd (binding affinity)
Provide the reported pKd of each item.
On this scale, pKd is minus log10 of a concentration expressed in M (mol/L).

Item: COc1cccc(-c2cccc3c2OC(CNC(=O)c2ccc(OCCN(C)C)cc2)CO3)n1 (stereo not drawn) Test system: GST-KRASG12V-GppNHp (Homo sapiens, UniProt P01116, G12V) Read-out: pKd Value: ? 6.66

Check COc1nc(-c2cccc3c2O[C@H](CNC(=O)C2CCOCC2)CO3)ccc1Nc1cccc(CN(C)C)c1 too. 7.42

Now this one: COc1nc(-c2cccc3c2OCCO3)ccc1Nc1ccc(CN(C)C)cc1 7.29

* * *

System: DLD-1 cells (KRAS^G13D)
Experiment description: Cell viability (CellTiterGlo), DLD-1
Assay type: cell-based, human
Measurement conditions: Homo sapiens; DLD-1, 48 h as printed in discussion; read-out: IC50 cell viability
pIC50: −log10 of the molar value.
Measured property: pIC50

Given the molecule COc1nc(-c2cccc3c2OCCO3)ccc1Nc1ccc(CN(C)C)cc1 , what is its reported pIC50? ~5.10

* * *

Tested system: HRASG12V-GTPγS (Homo sapiens, UniProt P01112, G12V)
Construct: expression of HRAS (1-166) HRAS^G12V or KRAS^G12V cDNA cloned into the pGEX-2T vector; GST (N)
Experiment description: waterLOGSY NMR titration for Kd
Measurement conditions: waterLOGSY titration 50 to 400 μM compound, single experimental analysis; read-out: Kd (dissociation constant)
Measured property: pKd
# pKd = -log10(concentration in molar units)

Requested read-out pKd, target or system HRASG12V-GTPγS (Homo sapiens, UniProt P01112, G12V), entry O=C(NCC1COc2ccccc2O1)c1ccco1 (stereo not shown) 3.63

* * *

Experiment description: Solubility
Format: physicochemical
Measured property: solubility (µM)
Reply numerically in µM, unit not repeated.

# input molecule: O=C(Nc1ccc2ccccc2n1)c1ccco1 [Abd-1, N-(2-quinolinyl)-2-furamide] ; wanted: its solubility 140

Now the same for O=C(NCC1COc2ccccc2O1)c1ccco1 (centres unmarked) [Abd-2] 446

* * *

System: HT1080 cells (NRAS^Q61K)
Experiment description: Cell viability (CellTiterGlo), HT1080
Assay type: cell-based, human
Measurement conditions: Homo sapiens, HT-1080; HT1080, 48 h as printed in discussion; read-out: IC50 cell viability
Measured property: IC50

Which IC50 is listed for COc1nc(-c2cccc3c2OCCO3)ccc1Nc1ccc(CN(C)C)cc1 ? ~10 µM

* * *

Tested system: GST-HRAS^G12V-GTPγS (Homo sapiens, UniProt P01112, G12V)
Construct: expression of HRAS (1-166) HRAS^G12V or KRAS^G12V cDNA cloned into the pGEX-2T vector
Sequence (P01112 1-166 G12V): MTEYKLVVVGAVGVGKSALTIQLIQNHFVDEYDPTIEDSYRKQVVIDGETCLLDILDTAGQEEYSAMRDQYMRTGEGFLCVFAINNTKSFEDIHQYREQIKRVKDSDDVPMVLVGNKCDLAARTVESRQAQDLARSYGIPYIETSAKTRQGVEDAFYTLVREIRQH
Experiment description: SPR binding to immobilized GST-HRAS G12V-GTPγS
Measurement conditions: SPR, estimated, single experimental analysis
Measured property: Kd

Quick check: Kd of O=C(Nc1ccc2ccccc2n1)c1ccco1 [Abd-1, N-(2-quinolinyl)-2-furamide] ? > 370 µM

* * *

Tested system: KRAS^G12V-GppNHp (Homo sapiens, UniProt P01116, G12V)
Construct: made in house; host or cells: E. coli (pGEX-2T; strain named only for the HRAS plasmids)
Sequence (P01116 1-188 isoform P01116-2 G12V): as the sequence (P01116 1-188 isoform P01116-2 G12V) above
Experiment description: waterLOGSY NMR binding

[
  {
    "Molecule": "COc1nc(-c2cccc3c2OCCO3)ccc1Nc1ccc(CN(C)C)cc1 [Abd-7]",
    "binding to KRAS^G12V-GppNHp (waterLOGSY)": "confirmed"
  },
  {
    "Molecule": "COc1nc(-c2cccc3c2O[C@H](CNC(=O)C2CCOCC2)CO3)ccc1Nc1cccc(CN(C)C)c1 [Abd-6]",
    "binding to KRAS^G12V-GppNHp (waterLOGSY)": "confirmed"
  },
  {
    "Molecule": "COc1cccc(-c2cccc3c2OC(CNC(=O)c2ccc(OCCN(C)C)cc2)CO3)n1 (stereo not shown) [Abd-5]",
    "binding to KRAS^G12V-GppNHp (waterLOGSY)": "confirmed"
  }
]

* * *

Test system: DLD-1 cells (KRAS^G13D)
Experiment description: Cell viability (CellTiterGlo), DLD-1
Assay type: cell-based, human
Measurement conditions: Homo sapiens, DLD-1, 72 h; read-out: IC50 cell viability
Measured property: pIC50
When answering, recall that pIC50 equals minus log10 of the concentration in mol/L, and write that number alone.

Need pIC50 of COc1nc(-c2cccc3c2OCCO3)ccc1Nc1ccc(CN(C)C)cc1 [Abd-7] , thanks. 5.10

* * *

Tested system: KRAS^G12V-GppNHp (Homo sapiens, UniProt P01116, G12V)
Construct: made in house; host or cells: E. coli (pGEX-2T; strain named only for the HRAS plasmids)
Experiment description: SPR binding to KRAS G12V-GppNHp
Measurement conditions: 100 μM, run in triplicate

[
  {
    "Compound": "O=C(NC[C@H]1COc2ccccc2O1)c1ccco1 [Abd-2a]",
    "binding to KRAS^G12V-GppNHp (SPR)": "bind"
  },
  {
    "Compound": "O=C(NC[C@@H]1COc2ccccc2O1)c1ccco1 [Abd-2b]",
    "binding to KRAS^G12V-GppNHp (SPR)": "bind"
  },
  {
    "Compound": "O=C(NCC1COc2ccccc2O1)c1ccco1 (stereo not shown) [Abd-2]",
    "binding to KRAS^G12V-GppNHp (SPR)": "binds"
  }
]

* * *

Experiment description: Caco-2 cell permeability assay
Assay type: in vitro ADME
Measurement conditions: human
Measured property: Papp A→B (nm/s)
Only the number, expressed in nm/s, is required.

Request the reported Papp A→B associated with COc1nc(-c2cccc3c2OCCO3)ccc1Nc1ccc(CN(C)C)cc1 70.3
